Recorded values, source patent US20210255193A1.

Molecular target: HNRNPK Heterogeneous nuclear ribonucleoprotein K (Homo sapiens, UniProt P61978)
Construct: isoTOP-ABPP experiments performed in cell lysates (in vitro); endogenous in cells; host or cells: soluble proteome of human cancer cell lines (MDA-MB-231, Ramos, Jurkat)
Experiment: competitive isoTOP-ABPP
Assay type: binding
Conditions: 50 uM_231_sol_in vitro
assay_readout: isoTOP-ABPP ratio, lysine P61978_K405
Give bare numbers.

Example entries begin here.
Quick check: isoTOP-ABPP ratio, lysine P61978_K405 on HNRNPK Heterogeneous nuclear ribonucleoprotein K (Homo sapiens, UniProt P61978), item O=C(ON1C(=O)CCC1=O)c1cc(C(F)(F)F)cc(C(F)(F)F)c1 ? 1.1

Quick check: isoTOP-ABPP ratio, lysine P61978_K405 on HNRNPK Heterogeneous nuclear ribonucleoprotein K (Homo sapiens, UniProt P61978), item N#Cc1ccc(C(=O)Oc2ccc([N+](=O)[O-])cc2[N+](=O)[O-])cc1 [fragment 44, 2,4-Dinitrophenyl 4-cyanobenzoate] ? 1.0

Quick check: isoTOP-ABPP ratio, lysine P61978_K405 on HNRNPK Heterogeneous nuclear ribonucleoprotein K (Homo sapiens, UniProt P61978), item O=C(CCc1ccc2c(c1)OCO2)Oc1ccc([N+](=O)[O-])cc1[N+](=O)[O-] ? 1.1

Continue with the compound presented below.
Quick check: isoTOP-ABPP ratio, lysine P61978_K405 on HNRNPK Heterogeneous nuclear ribonucleoprotein K (Homo sapiens, UniProt P61978), item NC(=O)c1cc(C(F)(F)F)cc(C(F)(F)F)c1 [fragment 51, reference compound] ? 1.2
